- ASSAY_TARGET: T1, human interleukin 12 (human, UniProt P29459 23-219; P29460 23-328)
- T1 construct: heterodimer of p35 and p40 linked by a disulfide bridge; also called hIL-12; IL-12
- T1 sequence (looked up) 1: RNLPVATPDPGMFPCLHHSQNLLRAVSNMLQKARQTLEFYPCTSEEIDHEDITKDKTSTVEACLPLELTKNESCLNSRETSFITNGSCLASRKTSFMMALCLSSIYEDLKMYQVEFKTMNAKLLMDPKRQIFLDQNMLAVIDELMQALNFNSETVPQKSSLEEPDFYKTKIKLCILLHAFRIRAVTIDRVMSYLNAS
- T1 sequence (looked up) 2: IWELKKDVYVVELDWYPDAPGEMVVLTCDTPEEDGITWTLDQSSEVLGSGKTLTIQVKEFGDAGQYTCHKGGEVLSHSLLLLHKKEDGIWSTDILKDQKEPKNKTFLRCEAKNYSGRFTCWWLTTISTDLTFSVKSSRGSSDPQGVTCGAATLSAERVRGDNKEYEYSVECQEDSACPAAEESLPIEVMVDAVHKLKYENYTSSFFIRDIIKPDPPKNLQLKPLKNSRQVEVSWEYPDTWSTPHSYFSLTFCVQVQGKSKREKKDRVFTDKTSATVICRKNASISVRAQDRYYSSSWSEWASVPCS
- TEST_NAME: RB assay (IL-12 receptor binding)
pIC50: −log10 of the molar value.
EXPERIMENTAL_ENDPOINT: pIC50

[[record]]
binder = "136-21 (antibody, V domains shown) VH: QVQLVQSGGGVVQPGRSLRLSCAASGFTFSSYGMHWVRQAPGKGLEWVAFIRYDGSNKYYADSVKGRFTISRDNSKNTLYLQMKSLRAEDTAVYYCTTHGSHDNWGQGTMVTVSS VL: SYVLTQPPSVSGTPGQRVTISCSGGRSNIGSNTVKWYQQLPGTAPKLLIYGNDQRPSGVPDRFSGSKSGTSASLAITGVQAEDEADYYCQSYDNGFTGSRVFGTGTKVTVL"
experimental_endpoint = "pIC50"
qualifier_symbol = "="
obs_value = 8.70

[[record]]
binder = "136-14 (antibody, V domains shown) VH: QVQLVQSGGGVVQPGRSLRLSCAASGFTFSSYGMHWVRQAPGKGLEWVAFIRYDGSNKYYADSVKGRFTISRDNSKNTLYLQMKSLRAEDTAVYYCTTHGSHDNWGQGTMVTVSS VL: SYVLTQPPSVSGTPGQRVTISCSGGRSNIGSNTVKWYQQLPGTAPKLLIYGNDQRPSGVPDRFSGSKSGTSASLAITGVQAEDEADYYCQTYDRGFTGSRVFGTGTKVTVL"
experimental_endpoint = "pIC50"
qualifier_symbol = "="
obs_value = 9.52

[[record]]
binder = "73-C1 (antibody, V domains shown) VH: QVQLVQSGGGVVQPGRSLRLSCAASGFTFSSYGMHWVRQAPGKGLEWVAFIRYDGSNKYYADSVKGRFTISRDNSKNTLYLQMKSLRAEDTAVYYCTTSGSYDYWGQGTMVTVSS VL: SYVLTQPPSVSGTPGQRVTISCSGGRSNIGSNTVKWYQQLPGTAPKLLIYGNDQRPSGVPDRFSGSKSGTSASLAITGVQAEDEADYYCHSYDSRFTGSRVFGTGTKVTVLG"
experimental_endpoint = "pIC50"
qualifier_symbol = "<"
obs_value = 8.00

[[record]]
binder = "136-10 (antibody, V domains shown) VH: QVQLVQSGGGVVQPGRSLRLSCAASGFTFSSYGMHWVRQAPGKGLEWVAFIRYDGSNKYYADSVKGRFTISRDNSKNTLYLQMKSLRAEDTAVYYCTTHGSHDDWGQGTMVTVSS VL: SYVLTQPPSVSGTPGQRVTISCSGGRSNIGSNTVKWYQQLPGTAPKLLIYGNDQRPSGVPDRFSGSKSGTSASLAITGVQAEDEADYYCQSYDRGFTGSRVFGTGTKVTVL"
experimental_endpoint = "pIC50"
qualifier_symbol = "="
obs_value = 8.70

[[record]]
binder = "136-17 (antibody, V domains shown) VH: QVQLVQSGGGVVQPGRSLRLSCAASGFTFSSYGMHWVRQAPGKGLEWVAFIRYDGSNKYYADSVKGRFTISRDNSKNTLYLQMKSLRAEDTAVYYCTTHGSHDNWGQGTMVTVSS VL: SYVLTQPPSVSGTPGQRVTISCSGGRSNIGSNTVKWYQQLPGTAPKLLIYGNDQRPSGVPDRFSGSKSGTSASLAITGVQAEDEADYYCQSYDWNFTGSRVFGTGTKVTVL"
experimental_endpoint = "pIC50"
qualifier_symbol = "="
obs_value = 8.70

